# Ki values compiled below
- SYSTEM: CB1 receptor (Rattus norvegicus, UniProt P20272)
- Construct: rat forebrain membranes as a source of CB1; prepared from whole brains minus the cerebral cortex)
- Sequence (P20272 whole entry): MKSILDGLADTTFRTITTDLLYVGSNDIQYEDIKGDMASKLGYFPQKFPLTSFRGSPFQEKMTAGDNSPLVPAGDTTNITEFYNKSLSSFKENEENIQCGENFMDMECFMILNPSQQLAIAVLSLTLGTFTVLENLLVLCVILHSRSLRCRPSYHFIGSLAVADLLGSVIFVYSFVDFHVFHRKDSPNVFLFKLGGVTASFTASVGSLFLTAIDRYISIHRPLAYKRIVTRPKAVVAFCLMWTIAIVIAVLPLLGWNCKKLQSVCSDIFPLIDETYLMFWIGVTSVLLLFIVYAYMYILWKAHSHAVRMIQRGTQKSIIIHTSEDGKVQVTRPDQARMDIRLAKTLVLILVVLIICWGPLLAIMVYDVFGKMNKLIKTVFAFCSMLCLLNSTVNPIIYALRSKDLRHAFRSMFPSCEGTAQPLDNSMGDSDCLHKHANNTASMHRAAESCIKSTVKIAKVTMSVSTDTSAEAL
- METHOD: Radioligand binding assay ([H^3]CP-55,940), rat forebrain membranes as source of CB1
- CONDITIONS: 0.8 nM [H^3]CP-55,940, 30° C., 1 hour, Ki from IC50 (Cheng and Prusoff)
MEASURED PARAMETER: Ki (µM)

>>> quantitative_result("CC1=CCC2C(C1)c1c(cc3c(c1O)C1CC(CCC1C)C3(C)C)OC2(C)C (centres unmarked) [AM724]")
6.88
>>> quantitative_result("CCCCCCC1CCc2cc(O)c3c(c2C1)OC(C)(C)C1CC=C(C)CC31 (centres unmarked)")
0.0223
>>> quantitative_result("CCCCCC1CCc2c(cc3c(c2O)C2CC(C)=CCC2C(C)(C)O3)C1 (centres unmarked)")
0.402
>>> quantitative_result("CCCCCCC1CCCc2c1cc(O)c1c2OC(C)(C)C2CC=C(C)CC12 (centres unmarked)")
0.524
>>> quantitative_result("CC1=CCC2C(C1)c1c(cc3c(c1O)C1CC(CCC1C)C3(C)C)OC2(C)C (centres unmarked) [AM725]")
360
